Source: PubChem BioAssay

- target.system: Calmodulin-1 (Homo sapiens) (UniProt P0DP23)
- procedure.text: CALM1 binders on microarrays, EGTA buffer, profiling panel, biochemical, small-molecule microarray, Cy5-labelled CALM1 (AID 1111);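 note: labelled calmodulin applied in Tris saline Tween buffer holding calcium plus EGTA and DTT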
- condition.description: Cy5-CALM1 binding fluorescence, higher = more signal
outcome.measure: composite z-score

>  <molecule>
COCCOC(=O)N1C(=O)[C@@]2(c3cc(C#CC4=CCCCC4)ccc31)[C@H](c1ccc(O)cc1)N1[C@H](c3ccccc3)[C@H](c3ccccc3)OC(=O)[C@H]1[C@@H]2C(=O)N1CCN(c2ncccn2)CC1

>  <readout.number>
-0.676

$$$$
>  <molecule>
CN1C(=O)C2C=CC(C(O)COCc3ccccc3)N(N(c3ccccc3)c3ccccc3)C2C1=O (centres undefined)

>  <readout.number>
1.41

$$$$
>  <molecule>
CCOc1cc(C(O)C2C=CC3C(=O)N(c4ccccc4)C(=O)C3N2Nc2ccc(C#N)cc2)ccc1O (centres undefined)

>  <readout.number>
1.81

$$$$
>  <molecule>
COC(=O)[C@@]1(Cc2ccc(OC)cc2)[C@H]2c3cc(C(=O)N4CCCC4)n(Cc4c(-c5ccccc5)noc4C)c3C[C@H]2CN1C(=O)c1ccccc1

>  <readout.number>
1.5

$$$$
